- TESTED_TARGET: BCL6 (Homo sapiens)
- Construct: endogenous in cells; host or cells: T47D breast cancer epithelial cells
- PROCEDURE_DETAILS: Immunofluorescence high content imaging of BCL6 degradation in T47D cells
- Format: cell-based
- MEASUREMENT_SETUP: T47D breast cancer epithelial cells, 3 days incubation
READOUT_LABEL: DC50

Entry under review: CNC(=O)COc1cc2cc(Nc3nc(N4CCC(O[C@H]5C[C@H](N6CCN(c7ccc(NC8CCC(=O)NC8=O)cc7)CC6)C5)CC4)ncc3Cl)ccc2n(C(C)C)c1=O (stereo partly shown) [Compound 5] . Reported DC50? 50 to 100 nM
